LD50 at 14 days listing for selected compounds.
# Experimental Protocol: Acute toxicity
# Condition Notes: male, Hannover-Wistar, rat, in vivo, po; rats, p.o., deaths observed for 14 days; read-out: LD₅₀
Give just the numeric value; mg/kg need not be written.

// known answers, use as guide
{"Compound": "C=C1N(CC)C(=O)OC12CCN(CCCN1c3ccccc3Sc3ccc(C(F)(F)F)cc31)CC2", "Recorded Value": 500}
{"Compound": "C=C1N(CC)C(=O)OC12CCN(CCCN1c3ccccc3Sc3ccc(Cl)cc31)CC2", "Recorded Value": 500}
{"Compound": "CN(C)CCCN1c2ccccc2Sc2ccc(Cl)cc21 [CPZ, reference compound]", "Recorded Value": 225}
{"Compound": "C=C1N(C)C(=O)OC12CCN(CCCN1c3ccccc3Sc3ccc(Cl)cc31)CC2", "Recorded Value": 353}

Proceeding to the next compound to report its LD50 at 14 days.
C=C1N(C)C(=O)OC12CCN(CCCN1c3ccccc3Sc3ccc(C(F)(F)F)cc31)CC2 has a reported LD50 at 14 days of 235
